System: NCI-H460 lung
Write down the outcome that applies. Available outcomes: active, inactive

>  <compound>
CCNCCNc1cc(-c2ccc(C(=O)OC)cc2)c(C#N)c2nc3ccccc3n12

>  <discrete_label>
inactive

$$$$
>  <compound>
O=C1/C(=C/c2ccc(Br)cc2)C=C(c2ccccc2)N1CCc1ccccc1

>  <discrete_label>
inactive

$$$$
>  <compound>
CN1CCN(Cc2ccc(NC(=O)c3cncc(C#Cc4cnc(N)c5ccc(C#N)cc45)c3)cc2C(F)(F)F)CC1

>  <discrete_label>
active

$$$$
>  <compound>
N#Cc1ccc(C#Cc2ccccc2C#CCCCCO)cc1

>  <discrete_label>
inactive

$$$$

Task item: Entry CCOc1cccc(/C=N/NC(=O)c2ccccc2Nc2ccnc(C(F)(F)F)c2)c1O : call = ?
Reply: active

Task item: Returns: the outcome recorded for CC[CH2][Pb]([CH2]CC)([CH2]CC)[O]C(=O)C(F)(F)F in this assay.
Reply: active

Task item: Fill in: this test's call for CSc1ccc(C2=NN(C(C)=O)C(c3cc(C)cs3)C2)cc1 (centres undefined) is ___
Reply: inactive

Task item: # fetch the recorded call for COc1cccc(/C=N/NC(=O)c2ccccc2Nc2ccnc(C(F)(F)F)c2)c1O here
Reply: active

Task item: Dear all, I need the recorded test outcome for CC1=C(C(=O)Nc2ccc3[nH]ncc3c2)C(c2ccc3ccccc3c2)CC(=O)N1 (centres undefined) , thank you.
Reply: inactive

Task item: What is the recorded call for this compound in the test? COC(=O)c1cc2c3ccccc3[nH]c2c2ncccc12
Reply: inactive

###

Test system: HL-60(TB) leukemia
Experiment: NCI tumour cell line growth inhibition, 48 h
Below, each entry is listed with its recorded GI50.

Task item: For HL-60(TB) leukemia, provide GI50 of Nc1ccn(C2O[C@H](CO)[C@@H](O)[C@@H]2O)c(=O)n1 (stereo partly drawn) please.
Reply: > 100 µM

Task item: // lookup GI50 | system=HL-60(TB) leukemia | key= COc1ccc(C2=NN(C(=O)c3cc(OC)c(OC)c(OC)c3)C(c3ccc(C#N)cc3)C2)cc1OC (stereo not drawn)
Reply: 1.85 µM

Task item: Request: GI50, test system HL-60(TB) leukemia, entry CC1=C(C(=O)Nc2ccc3[nH]ncc3c2)C(c2ccc3ccccc3c2)CC(=O)N1 (stereo not drawn)
Reply: > 25 µM

Task item: Give HL-60(TB) leukemia GI50 for COC(=O)CCCCN=Cc1c(O)c(O)c(C(C)C)c2cc(C)c(-c3c(C)cc4c(C(C)C)c(O)c(O)c(C=NCCCCC(=O)OC)c4c3O)c(O)c12
Reply: 1.13 µM

###

System: DU-145 prostate
Assay: NCI tumour cell line growth inhibition, 48 h
TGI listing for selected compounds.
Record the value in µM, omitting the unit from your answer.

Example entries and their recorded answers appear below.
>  <compound>
NCC1CCN(c2nc3ccccc3c3c2CCCC3)CC1

>  <tested_system>
DU-145 prostate

>  <measured_property>
TGI

>  <unit_descriptor>
µM

>  <result_value>
25.9

$$$$
>  <compound>
N#C/C(=C1C=C/C(=N/O)C(Br)=C/1)c1ccccc1

>  <tested_system>
DU-145 prostate

>  <measured_property>
TGI

>  <unit_descriptor>
µM

>  <result_value>
9.69

$$$$
>  <compound>
N#Cc1ccc(C#Cc2ccccc2C#CCCCCO)cc1

>  <tested_system>
DU-145 prostate

>  <measured_property>
TGI

>  <unit_descriptor>
µM

>  <result_value>
29.8

$$$$
>  <compound>
CC[CH2][Pb]([CH2]CC)([CH2]CC)[O]C(=O)C(F)(F)F

>  <tested_system>
DU-145 prostate

>  <measured_property>
TGI

>  <unit_descriptor>
µM

>  <result_value>
0.516

$$$$
>  <compound>
COc1ccc2c(c1)c(-c1nc(-c3cn(C)c4ncccc34)cs1)cn2CCCN1CCCCC1

>  <tested_system>
DU-145 prostate

>  <measured_property>
TGI

>  <unit_descriptor>
µM

>  <result_value>
2.98

$$$$

Task item: Enter reported TGI observed with DU-145 prostate for CC(O[Si](c1ccccc1)(c1ccccc1)C(C)(C)C)[C@H](NC(=O)OC(C)(C)C)C(=O)O[Si](c1ccccc1)(c1ccccc1)C(C)(C)C (stereo not given in full)
Reply: 25.6

Task item: Return TGI measured with DU-145 prostate given this compound: CCN(CC)CCc1c2c(nc3ccccc13)C(=O)c1cccnc1C2=O
Reply: 1.84

Task item: So what TGI did COc1cc(OC)cc(-c2ccc(-c3ccc(C(=N)N)o3)o2)c1 get with DU-145 prostate?
Reply: 15.2
